This collection of values is drawn from paper PMC5809120.

- target_desc: PtNTT2(66-575) (Phaeodactylum tricornutum)
- Sequence (B7FWL8 66-575): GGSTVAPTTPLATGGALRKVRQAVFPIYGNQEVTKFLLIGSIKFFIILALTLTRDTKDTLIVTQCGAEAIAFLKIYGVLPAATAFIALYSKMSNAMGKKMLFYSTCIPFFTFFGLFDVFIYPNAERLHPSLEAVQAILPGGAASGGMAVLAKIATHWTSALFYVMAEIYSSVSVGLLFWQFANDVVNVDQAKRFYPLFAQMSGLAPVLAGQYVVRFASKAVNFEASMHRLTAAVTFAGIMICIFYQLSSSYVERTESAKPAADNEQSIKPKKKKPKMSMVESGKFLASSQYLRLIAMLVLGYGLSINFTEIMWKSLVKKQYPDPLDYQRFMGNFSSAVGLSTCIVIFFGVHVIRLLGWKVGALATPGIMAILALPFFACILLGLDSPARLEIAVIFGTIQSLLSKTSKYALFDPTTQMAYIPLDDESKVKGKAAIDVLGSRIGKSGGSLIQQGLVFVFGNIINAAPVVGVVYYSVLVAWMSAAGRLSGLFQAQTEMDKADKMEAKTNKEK
- procedure_summary: inhibition of [α-32P]ATP uptake into E. coli YZ2 cells
- Format: cell-based
- cond: read-out: % inhibition at 500 μM
Rule: inhibition at 500 µM of 70% or more gives True; anything lower gives False.

{"columns": ["mol", "category"],
 "data": [
  ["Nc1nc(=O)n([C@H]2C[C@H](O)[C@@H](COP(=O)(O)OP(=O)(O)OP(=O)(O)O)O2)cc1I", "True"]
]}

Input line: Would you say Nc1ccn([C@H]2C[C@H](O)[C@@H](COP(=O)(O)OP(=O)(O)OP(=O)(O)O)O2)c(=O)n1 shows inhibition at 500 µM at minimum 70%?
Output line: True

Input line: Would you say Nc1nc2c(ncn2[C@@H]2O[C@H](COP(=O)(O)OP(=O)(O)OP(=O)(O)O)[C@@H](O)[C@@H]2O)c(=O)[nH]1 shows inhibition at 500 µM at minimum 70%?
Output line: False

Input line: Would you say Nc1nc2c(ncn2[C@@H]2O[C@H](COP(=O)(O)OP(=O)(O)OP(=O)(O)O)[C@@H](O)[C@H]2O)c(=O)[nH]1 shows inhibition at 500 µM at minimum 70%?
Output line: False

Input line: Would you say Nc1nc(=O)n([C@@H]2O[C@H](COP(=O)(O)OP(=O)(O)OP(=O)(O)O)[C@@H](O)[C@H]2O)cc1CO shows inhibition at 500 µM at minimum 70%?
Output line: True

Input line: Would you say Nc1nc(=O)n([C@@H]2O[C@H](COP(=O)(O)OP(=O)(O)OP(=O)(O)O)[C@@H](O)[C@H]2O)cc1I shows inhibition at 500 µM at minimum 70%?
Output line: True

Input line: Would you say Cc1cn([C@H]2C[C@H](N=[N+]=[N-])[C@@H](COP(=O)(O)OP(=O)(O)OP(=O)(O)O)O2)c(=O)[nH]c1=O shows inhibition at 500 µM at minimum 70%?
Output line: False

Input line: Would you say Nc1nc2c(ncn2[C@H]2C[C@H](O)[C@@H](COP(=O)(O)OP(=O)(O)OP(=O)(O)O)O2)c(=O)[nH]1 shows inhibition at 500 µM at minimum 70%?
Output line: False

Input line: Would you say Nc1ccn([C@@H]2O[C@H](COP(=O)(O)OP(=O)(O)OP(=O)(O)O)[C@@H](O)[C@@H]2O)c(=O)n1 shows inhibition at 500 µM at minimum 70%?
Output line: True
